Test: Rat lung retention assay (intra-tracheal dosing)
Assay type: in vivo
Details: rat, in vivo, rat lung, co-dosed internal standard, 48 hrs; read-out: Mean (PCT AU01/01128 compound 3)
readoutName: concentration at 48 h (ng/g)
A number alone suffices; assume ng/g.

Recorded result, CC(=O)N[C@H]1[C@H]([C@H](OC(=O)NCCCCCCNC(=O)CN(CCN(CC(=O)NCCCCCCNC(=O)O[C@H](C(O)CO)[C@@H]2OC(C(=O)O)=C[C@H](NC(=N)N)[C@H]2NC(C)=O)CC(=O)NCCCCCCNC(=O)O[C@H](C(O)CO)[C@@H]2OC(C(=O)O)=C[C@H](NC(=N)N)[C@H]2NC(C)=O)CC(=O)NCCCCCCNC(=O)O[C@H](C(O)CO)[C@@H]2OC(C(=O)O)=C[C@H](NC(=N)N)[C@H]2NC(C)=O)[C@H](O)CO)OC(C(=O)O)=C[C@@H]1NC(=N)N (stereo partly shown) [PCT AU01/01128 compound 3] , concentration at 48 h: 1040

* * *

Experiment: Rat lung retention assay (intra-tracheal dosing)
Format: in vivo
Settings: rat, in vivo, 0.1 mg/kg, Mean (cmpd) ng/g
Counter-ions that a name gives are not always drawn.
readoutName: concentration at 48 h (ng/g)
A number alone suffices; assume ng/g.

Recorded result, CC(=O)N[C@H]1[C@H]([C@H](OC(=O)NCCCCCCCCCCCCCNC(=O)O[C@@H]([C@@H]2OC(C(=O)O)=C[C@H](NC(=N)N)[C@H]2NC(C)=O)[C@H](O)CO)[C@H](O)CO)OC(C(=O)O)=C[C@@H]1NC(=N)N [Example 4, bis(trifluoroacetic acid salt)] , concentration at 48 h: 1770

* * *

List of ID50 B/Harbin/7/95 values.
Tested on: Influenza B/Harbin/7/95
Assay: Cytopathic effect (CPE) assay, inhibition of influenza virus replication in MDCK cells
Format: cell-based
Conditions: up to 72 hours, MTT
Where a name gives a salt, the structure may show the parent alone.
A number alone suffices; assume µg/mL.

// known answers, use as guide
INSERT INTO results (molecule, readoutname, measureunit, reportedresult) VALUES
  ('CC(=O)N[C@H]1[C@H]([C@H](OC(=O)NCCCCCCCCCCCCCNC(=O)O[C@@H]([C@@H]2OC(C(=O)O)=C[C@H](NC(=N)N)[C@H]2NC(C)=O)[C@H](O)CO)[C@H](O)CO)OC(C(=O)O)=C[C@@H]1NC(=N)N [Example 4, bis(trifluoroacetic acid salt)]', 'ID50 B/Harbin/7/95', 'µg/mL', 0.0001),
  ('CC(=O)N[C@H]1[C@H]([C@H](OC(=O)NCCCCCCCCCCCNC(=O)O[C@@H]([C@@H]2OC(C(=O)O)=C[C@H](NC(=N)N)[C@H]2NC(C)=O)[C@H](O)CO)[C@H](O)CO)OC(C(=O)O)=C[C@@H]1NC(=N)N.O=C(O)C(F)(F)F.O=C(O)C(F)(F)F', 'ID50 B/Harbin/7/95', 'µg/mL', 0.0001),
  ('CC(=O)N[C@H]1[C@H]([C@H](OC(=O)NCCCCCCCCCCCCCCNC(=O)O[C@@H]([C@@H]2OC(C(=O)O)=C[C@H](NC(=N)N)[C@H]2NC(C)=O)[C@H](O)CO)[C@H](O)CO)OC(C(=O)O)=C[C@@H]1NC(=N)N.O=C(O)C(F)(F)F.O=C(O)C(F)(F)F', 'ID50 B/Harbin/7/95', 'µg/mL', 0.0003);

# evaluate next
Recorded result, `CC(=O)N[C@H]1[C@H]([C@H](OC(=O)NCCCCCCCCCCNC(=O)O[C@@H]([C@@H]2OC(C(=O)O)=C[C@H](NC(=N)N)[C@H]2NC(C)=O)[C@H](O)CO)[C@H](O)CO)OC(C(=O)O)=C[C@@H]1NC(=N)N.O=C(O)C(F)(F)F.O=C(O)C(F)(F)F` , ID50 B/Harbin/7/95: 0.0001
